Sourced from paper PMC7591920

measured_on: T1, GST-hTEAD1(209-426) (human, UniProt P28347 209-426)
T1 construct: A 3C protease site stands between tags and protein; also called human TEAD1; source: E. coli BL21 DE3 RIL, purified (His Trap, SEC); not shown: GST, N-terminal, kept
test_description: fluorescence polarisation; direct: FITC-labelled peptide (10 nM) titrated with hTEAD1 or mTEAD4; 10 mM HEPES, 150 mM NaCl, 0.1% Tween-20, pH 7.4; read after 1 h
experimental_setup: both partners purified
Bridge positions count the residues as written; N and C are the ends. Square brackets hold non-standard residues; d marks the D form. Primed or numbered codes have the meaning given here. Ends that are not written are not given here. * marks the point of attachment. FITC = O=C1OC2(c3ccc(O)cc3Oc3cc(O)ccc32)c2ccc(NC(=S)*)cc21; PEG2′ = not defined here; Peg = not defined here
measured_quantity: pKd
In plain terms, pKd is the concentration in mol/L turned into minus its base-10 logarithm.

Could you tell me which pKd is on file for GRKKRRQRRRPQ[PEG2′]SVEDHFAKALGDTWLQIKAA (not fully specified (some residues); also: FITC label, place not given here, also called 7 (FITC-Peg); source: synthetic peptide) [FITC-labelled peptide 7 (Tat-PEG2-4E)] ? 6.83

# input binder: {FITC-Peg}-SVEDHFAKALGDTWLQIKAA (lactam 3-18; reading uncertain, macrocyclic VGL4 two-helix motif 4E; numbers count on: mouse VGL4 as in PDB 4LN0; Rink amide resin: C-terminal amide surmised; also called 4E (FITC-Peg); source: synthetic peptide) [FITC-labelled peptide 4E] ; wanted: its pKd 6.77
